assayExplanation: Pharmacokinetics of steroidal alkaloids after single oral FTB dose in normal and DNBS-induced colitis rats
Type: in vivo, Sprague–Dawley rats
assaySetup: male, Sprague-Dawley, rat, plasma, po, 1 g/kg, DNBS-treated (colitis) rats; oral FTB 1 g/kg single dose; mean ± SD, n = 5
recordedEndpoint: half-life (h)

INSERT INTO measurements (compound, observed) VALUES
  ('CC1=C2C[C@H]3[C@@H](CC(=O)C4C[C@@H](O)CC[C@@]43C)[C@@H]2CC[C@]12OC1C[C@H](C)CN[C@H]1[C@H]2C (stereo partly shown) [peimisine]', 7.7),
  ('C[C@H]1CC[C@@H]2N(C1)C[C@H]1[C@@H]3C[C@H]4[C@@H](CC(=O)[C@H]5C[C@@H](O)CC[C@@]54C)[C@@H]3CC[C@@H]1[C@]2(C)O [peiminine]', 1.8),
  ('C[C@H]1CC[C@@H]2N(C1)C[C@H]1[C@@H]3C[C@H]4[C@@H](C[C@H](O)[C@H]5C[C@@H](O)CC[C@@]54C)[C@@H]3CC[C@@H]1[C@]2(C)O [peimine]', 1.9),
  ('C[C@H]1CC[C@@H]2N(C1)C[C@H]1[C@@H]3C[C@H]4[C@@H](CC(=O)[C@H]5C[C@@H](O)CC[C@@]54C)[C@@H]3CC[C@H]1[C@]2(C)O [sipeimine]', 3.2);
